Sourced from patent US11524966B1

assay target: USP28 (His-tagged USP28-FL-mammalian) (Homo sapiens, UniProt Q96RU2)
Construct: Expression of USP28 (1-1077)-TEV-6*His (pTT5 vector); made in house; host or cells: Expi293f cells (pTT5 vector)
Sequence (Q96RU2 whole entry): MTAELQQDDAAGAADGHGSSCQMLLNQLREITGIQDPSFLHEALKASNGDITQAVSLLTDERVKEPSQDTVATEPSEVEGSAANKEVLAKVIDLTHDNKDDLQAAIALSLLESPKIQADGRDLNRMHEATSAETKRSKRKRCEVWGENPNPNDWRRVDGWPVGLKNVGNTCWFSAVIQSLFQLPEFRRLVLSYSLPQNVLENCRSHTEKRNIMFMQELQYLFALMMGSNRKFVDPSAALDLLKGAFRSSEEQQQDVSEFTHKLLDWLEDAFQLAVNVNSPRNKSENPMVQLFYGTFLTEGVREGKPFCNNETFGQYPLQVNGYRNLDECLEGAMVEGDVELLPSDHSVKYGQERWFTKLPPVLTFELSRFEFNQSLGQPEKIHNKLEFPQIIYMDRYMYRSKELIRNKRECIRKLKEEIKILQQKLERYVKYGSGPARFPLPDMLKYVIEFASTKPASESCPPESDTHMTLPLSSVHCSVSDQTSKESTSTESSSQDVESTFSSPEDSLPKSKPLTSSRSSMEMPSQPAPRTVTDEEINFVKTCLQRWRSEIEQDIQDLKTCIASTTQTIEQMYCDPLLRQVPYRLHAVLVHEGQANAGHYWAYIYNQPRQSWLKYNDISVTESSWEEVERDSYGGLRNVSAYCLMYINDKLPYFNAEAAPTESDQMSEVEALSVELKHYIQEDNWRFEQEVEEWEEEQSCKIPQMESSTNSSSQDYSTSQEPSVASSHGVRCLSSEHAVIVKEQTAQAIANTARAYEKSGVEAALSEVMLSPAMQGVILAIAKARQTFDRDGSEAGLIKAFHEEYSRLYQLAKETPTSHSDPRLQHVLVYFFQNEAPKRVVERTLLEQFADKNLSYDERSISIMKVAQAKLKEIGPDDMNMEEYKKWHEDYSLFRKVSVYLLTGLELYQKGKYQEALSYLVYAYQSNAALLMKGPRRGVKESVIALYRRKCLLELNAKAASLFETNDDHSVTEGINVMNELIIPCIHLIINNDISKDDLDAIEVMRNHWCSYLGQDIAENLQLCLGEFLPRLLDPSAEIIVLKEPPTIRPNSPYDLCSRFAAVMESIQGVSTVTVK
test summary: Ubiquitin-Rhodamine 110 Assay for USP28 Activity, Example A-1(a)
Assay type: biochemical
details: Ubiquitin-Rhodamine 110 assay, Example A-1(a); read-out: USP28 A-1(a) IC50 range
pIC50: −log10 of the molar value.
Examples of compounds with documented pIC50 follow.
experimental readout: pIC50

compound: Cc1ccc2c(N)c(C(=O)N[C@H]3COc4cc(N5C[C@H](N)[C@]6(CCCO6)C5)ccc4C3)sc2n1
result: 7.30 to 9.00
--
compound: Cc1ccc2c(N)c(C(=O)N[C@H]3COc4cc(N5C[C@@H](F)[C@@H](N)C5)ccc4C3)sc2n1 (single isomer, unassigned)
result: 7.30 to 9.00
--
compound: Cc1ccc2c(N)c(C(=O)N[C@H]3COc4cc(N5C[C@@H](N)[C@H](C(F)F)C5)ccc4C3)sc2n1
result: 7.30 to 9.00
--
compound: Cc1cnc2c(N)c(C(=O)N[C@H]3COc4cc(N5CCNCC5)cc(F)c4C3)sc2n1
result: 7.30 to 9.00
--
compound: Cc1ccc2c(N)c(C(=O)N[C@H]3COc4cc(N5CC[C@@]6(CCCNC6)C5)ccc4C3)sc2n1
result: 7.30 to 9.00
--
compound: Cc1cc(C)c2c(N)c(C(=O)N[C@H]3COc4cc(N5CC6CCC(C5)N6)c(C#N)c(F)c4C3)sc2n1
result: 7.30 to 9.00
--
compound: CO[C@H]1CN(c2ccc3c(n2)CC[C@H](NC(=O)c2sc4nc(C)ccc4c2N)C3)C[C@H]1N
result: 6.70 to 7.30
--
compound: Cc1cc(C(F)F)c2c(N)c(C(=O)N[C@H]3COc4cc(N5CC6CNCC(C5)O6)ccc4C3)sc2n1
result: 7.30 to 9.00
--
compound: CO[C@H]1CN(c2ccc3c(c2F)OC[C@H](NC(=O)c2sc4nc(C)ccc4c2N)C3)C[C@@H]1N
result: 7.30 to 9.00
--
compound: CO[C@H]1CN(c2cc3c(cn2)C[C@@H](NC(=O)c2sc4nc(C)ccc4c2N)CO3)C[C@@H]1N
result: 7.30 to 9.00
--
compound: CCn1ccc2cc(C(=O)N[C@H]3CCc4cc(N5C[C@H](OC)[C@@H](N)C5)ccc4C3)nnc21
result: < 5.70
--
compound: Cc1ccc2c(N)c(C(=O)N[C@H]3COc4cc(N5C[C@@H](N)[C@@H]6OCC[C@@H]65)ccc4C3)sc2n1
result: 7.30 to 9.00

----------
Each record here notes measured pIC50.
assay target: USP28 (His-tagged USP28-FL-mammalian) (Homo sapiens)
Construct: Expression of USP28 (1-1077)-TEV-6*His (pTT5 vector); made in house; host or cells: Expi293f cells (pTT5 vector)
test summary: Ubiquitin-Rhodamine 110 Assay for USP28 Activity, Example A-1(a)
Format: biochemical
details: Ubiquitin-Rhodamine 110 assay, Example A-1(a); read-out: USP28 A-1(a) IC50 range
pIC50: −log10 of the molar value.

compound: Cc1ccc2c(N)c(C(=O)N[C@H]3COc4cc(N5CCNCC5)cc(F)c4C3)sc2n1
assay target: USP28 (His-tagged USP28-FL-mammalian) (Homo sapiens)
pIC50: 7.30 to 9.00
--
compound: Cc1ccc2c(N)c(C(=O)N[C@H]3CCc4nc(N5CC[C@](N)(CO)C5)ccc4C3)sc2n1
assay target: USP28 (His-tagged USP28-FL-mammalian) (Homo sapiens)
pIC50: 6.70 to 7.30
--
compound: CO[C@]12CNC[C@H]1CN(c1ccc3c(c1)OC[C@H](NC(=O)c1sc4nc(C)ccc4c1N)C3)C2
assay target: USP28 (His-tagged USP28-FL-mammalian) (Homo sapiens)
pIC50: 7.30 to 9.00
--
compound: CO[C@H]1CN(c2ccc3c(c2)CC[C@H](NC(=O)c2cnc4c(c2)[C@@H]2C[C@@H]2CN4)C3)C[C@@H]1N
assay target: USP28 (His-tagged USP28-FL-mammalian) (Homo sapiens)
pIC50: 5.70 to 6.70
--
compound: N#Cc1c(N2CC3CCC(C2)N3)cc2c(c1F)C[C@@H](NC(=O)c1cnc3c(c1)[C@@H]1C[C@@H]1CN3)CO2
assay target: USP28 (His-tagged USP28-FL-mammalian) (Homo sapiens)
pIC50: 7.30 to 9.00
--
compound: CO[C@@H]1CN(c2ccc3c(c2)OC[C@H](NC(=O)c2sc4nc(C)ccc4c2N)C3)[C@H](C)[C@H]1N
assay target: USP28 (His-tagged USP28-FL-mammalian) (Homo sapiens)
pIC50: 7.30 to 9.00
--
compound: Cc1cnc2c(N)c(C(=O)N[C@H]3CCc4cc(N5CC6CCC(C5)N6)ccc4C3)sc2n1 (single isomer, unassigned)
assay target: USP28 (His-tagged USP28-FL-mammalian) (Homo sapiens)
pIC50: 6.70 to 7.30
--
compound: CO[C@@H]1CN(c2ccc3c(c2)OC[C@H](NC(=O)c2sc4nc(C)ccc4c2N)C3)CC[C@H]1N
assay target: USP28 (His-tagged USP28-FL-mammalian) (Homo sapiens)
pIC50: 7.30 to 9.00
--
compound: Cc1ccc2c(N)c(C(=O)N[C@H]3COc4cc(N5C[C@H](N)[C@@]6(CCCO6)C5)ccc4C3)sc2n1
assay target: USP28 (His-tagged USP28-FL-mammalian) (Homo sapiens)
pIC50: 7.30 to 9.00
--
compound: Cc1ccc2c(N)c(C(=O)N[C@H]3COc4c(ccc(N5CC6CCC(C5)N6)c4F)C3)sc2n1
assay target: USP28 (His-tagged USP28-FL-mammalian) (Homo sapiens)
pIC50: 7.30 to 9.00
--
compound: O=C(N[C@H]1COc2cc(N3CCNCC3)ccc2C1)c1cn2nc(Cl)ccc2n1
assay target: USP28 (His-tagged USP28-FL-mammalian) (Homo sapiens)
pIC50: < 5.70
--
compound: CO[C@@]12CNC[C@@H]1CN(c1ccc3c(c1)OC[C@H](NC(=O)c1sc4nc(C)ccc4c1N)C3)C2
assay target: USP28 (His-tagged USP28-FL-mammalian) (Homo sapiens)
pIC50: 7.30 to 9.00
